Biological target: bacterial tyrosinase enzyme
Assay: in vitro bacterial tyrosinase inhibition assay
Assay type: biochemical
Conditions: L-tyrosine substrate, by extrapolation of the graph
pIC50: −log10 of the molar value.
Measured property: pIC50

| Compound | Assayed target | Measured property | Result |
| --- | --- | --- | --- |
| COc1ccccc1NC(=O)CSc1nnc(-c2cc3c(ccc4ccccc43)o2)n1-c1ccccc1 [20g] | bacterial tyrosinase enzyme | pIC50 | 4.89 |

a. O=C(CSc1nnc(-c2cc3c(ccc4ccccc43)o2)n1-c1ccccc1)Nc1ccccc1Cl [20f]
b. O=C(CSc1nnc(-c2cc3c(ccc4ccccc43)o2)n1-c1ccccc1)N1CCOCC1 [20i]
c. CCN(CC)C(=O)CSc1nnc(-c2cc3c(ccc4ccccc43)o2)n1-c1ccccc1 [20j]
d. O=C(CSc1nnc(-c2cc3c(ccc4ccccc43)o2)n1-c1ccccc1)Nc1ccc(F)cc1 [20h]
Asked: Order these by pIC50, descending, and give the full ranking. Labels, requested order.
Given back: a, b, d, c

From: paper PMC11583631
